Source listed as patent US20260265383A1.

- Experimental Target: T1, RAMP2 Scr V1
- T1 construct: it is not part of the secreted protein; Expressed in HEK cells
- T1 chain: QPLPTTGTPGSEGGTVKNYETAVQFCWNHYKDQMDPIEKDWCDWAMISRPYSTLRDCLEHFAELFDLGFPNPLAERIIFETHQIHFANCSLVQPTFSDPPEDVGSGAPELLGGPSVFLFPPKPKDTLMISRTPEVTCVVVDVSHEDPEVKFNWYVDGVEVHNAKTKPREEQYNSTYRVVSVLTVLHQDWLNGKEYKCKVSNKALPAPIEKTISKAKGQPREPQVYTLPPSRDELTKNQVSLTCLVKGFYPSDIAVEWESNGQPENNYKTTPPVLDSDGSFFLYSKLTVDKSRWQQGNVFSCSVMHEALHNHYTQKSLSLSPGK
- Assay Explanation: ELISA, 24-well supernatants on coated antigen
Reported Metric: binding result

RAMP2-rIgG-k1-2H3 (antibody, V domains shown, tested as recombinant rabbit IgG-kappa1; also called rlgG-k1-2H3; 2H3_#13) VH: QSVEESGGDLVKPGASLTLTCTASGFSFSSRYYMCWVRQAPGKGLEWIACIFGGSSDNSYYARWAKGRFTISKTSSTTVTLRMTSLTAADTATYFCVRSDAWGVNLWGPGTLVTVSS VL: AAVMTQTPSPVSGVVGGTVTIKCQASQSIYGYFSWYQQKPGQPPKLLIYSASDLASGVPSRFKGSGSGTQFTLTISDLECADAATYYCQCSYDGSSPNAFGGGTEVVVK
binds
RAMP2-rIgG-k1-1H6#4 (antibody, V domains shown, tested as recombinant rabbit IgG-kappa1; also called rlgG-k1-1H6) VH: QEHLVESEGGLFKPTDTLTLTCTVSGFSLSSYGVSWVRQAPGKGLEWIGVIGATGSAYYANWAKSRSTITRNTNLNTVTLKVTSLTAADTATYFCARDDVLTGMDLWGPGTLVTVSS VL: APVLTQTPASVEAAVGGTVTIKCQASQSINSWLSWYQQKPGQPPKLLIYQASKLASGVPSRFKGSGSGTEYTLTISDLKCADAATYYCQSYDYASNSGYVSNPFGGGTEVVVK
binds
RAMP2-rIgG-k1-2A8 (antibody, V domains shown, tested as recombinant rabbit IgG-kappa1; also called rlgG-k1-2A8; 2A8_#12) VH: QSLEESGGGLVQPEGSLTLTCTASGFDLSRYYYIFWVRQAPGKGLEWIGCIYIGGNIITYYASWAKGRFTISKTSSPAVTLQMTSLTVADTATYFCARGTGYGGYGDVSLWGPGTLVTVSS VL: APVLTHTAASVSEPVGGIVTINCQASQSIGSNLAWYQQKSGQPPKLLIYDASNLVSGVPSRFKGSRSGTEYTLTISDLECADAGTYYCQGYYYGSSTSYNLVSFGGGTEVVVK
binds
